Provenance of the data: ChEMBL document CHEMBL2157869

Here's a batch of compounds along with measured IC50 for Cytochrome P450 3A4 (Homo sapiens).
parameter_measured: IC50 (µM)

>  <compound>
CC/N=C1\O[C@H]2[C@H](O[C@@H]3[C@@H](C)[C@H](O[C@H]4C[C@@](C)(OC)[C@@H](O)[C@H](C)O4)[C@@H](C)C(=O)O[C@H](CC)[C@@](C)(O)[C@H](O)[C@@H](C)C(=O)[C@H](C)C[C@@]3(C)O)O[C@H](C)C[C@@H]2N1C

>  <parameter_measured>
IC50

>  <number>
0.5

$$$$

P = CC/N=C1\O[C@H]2[C@H](O[C@@H]3[C@@H](C)[C@H](O[C@H]4C[C@@](C)(OC)[C@@H](O)[C@H](C)O4)[C@@H](C)C(=O)O[C@H](CC)[C@@](C)(O)[C@H](O)[C@@H](C)N(C)C[C@H](C)C[C@@]3(C)O)O[C@H](C)C[C@@H]2N1C
Q = CC[C@H]1OC(=O)[C@H](C)[C@@H](O[C@H]2C[C@@](C)(OC)[C@@H](O)[C@H](C)O2)[C@H](C)[C@@H](O[C@@H]2O[C@H](C)C[C@H]3[C@H]2O/C(=N\C(C)C)N3C)[C@](C)(OC)C[C@@H](C)NC(=O)[C@H](C)[C@@H](O)[C@]1(C)O
Query string: # compare IC50 for P vs Q ; return the one with the smaller value // return label of chosen record
Result string: Q

* * *

assay: Cmax in cystic fibrosis patient plasma at 500 mg; assay type: ADME, organism-based; set-up: dose 500 mg; settings: human
parameter_measured: Cmax (ng/mL)
Give the value, in units of ng/mL, as a plain number.

Query string: For the compound CC[C@H]1OC(=O)[C@H](C)[C@@H](O[C@H]2C[C@@](C)(OC)[C@@H](O)[C@H](C)O2)[C@H](C)[C@@H](O[C@@H]2O[C@H](C)C[C@H](N(C)C)[C@H]2O)[C@](C)(O)C[C@@H](C)CN(C)[C@H](C)[C@@H](O)[C@]1(C)O [AZITHROMYCIN] , give its measured Cmax value.
Result string: 670

* * *

assay: Oral bioavailability in Sprague-Dawley rat at 10 mg/kg; type: ADME, organism-based; details: in vivo
parameter_measured: bioavailability (%)
Give the value, in units of %, as a plain number.

Query string: For the compound CC[C@H]1OC(=O)[C@H](C)[C@@H](O[C@H]2C[C@@](C)(OC)[C@@H](O)[C@H](C)O2)[C@H](C)[C@@H](O[C@@H]2O[C@H](C)C[C@H]3[C@H]2O/C(=N\C(C)C)N3C)[C@](C)(O)C[C@@H](C)CN(C)[C@H](C)[C@@H](O)[C@]1(C)O , give its measured bioavailability value.
Result string: 33

* * *

experiment: Half life in BALB/cJ mouse at 5 mg/kg, iv and 25 mg/kg, po; type: ADME, organism-based; settings: in vivo
parameter_measured: half-life (min)
Give the value, in units of min, as a plain number.

Query string: For the compound CC[C@H]1OC(=O)[C@H](C)[C@@H](O[C@H]2C[C@@](C)(OC)[C@@H](O)[C@H](C)O2)[C@H](C)[C@@H](O[C@@H]2O[C@H](C)C[C@H]3[C@H]2O/C(=N\C(C)C)N3C)[C@](C)(O)C[C@@H](C)CN(C)[C@H](C)[C@@H](O)[C@]1(C)O , give its measured half-life value.
Result string: 1040

* * *

Here's a batch of compounds along with measured IC50 for UniProtKB P08684.
parameter_measured: IC50 (µM)

>  <compound>
CC[C@H]1OC(=O)[C@H](C)[C@@H](O[C@H]2C[C@@](C)(OC)[C@@H](O)[C@H](C)O2)[C@H](C)[C@@H](O[C@@H]2O[C@H](C)C[C@H]3[C@H]2O/C(=N\CCCN(C)C)N3C)[C@](C)(OC)C[C@@H](C)C(=O)[C@H](C)[C@@H](O)[C@]1(C)O

>  <experimental_system>
UniProtKB P08684

>  <IC50 (µM)>
8

$$$$
>  <compound>
CC/N=C1\O[C@H]2[C@H](O[C@@H]3[C@@H](C)[C@H](O[C@H]4C[C@@](C)(OC)[C@@H](O)[C@H](C)O4)[C@@H](C)C(=O)O[C@H](CC)[C@@](C)(O)[C@H](O)[C@@H](C)C(=O)[C@H](C)C[C@@]3(C)O)O[C@H](C)C[C@@H]2N1C

>  <experimental_system>
UniProtKB P08684

>  <IC50 (µM)>
5.7

$$$$

* * *

Here, each record is paired with measured IC50 data.
molecular target: Cytochrome P450 3A4 (Homo sapiens, UniProt P08684)
Sequence (P08684 whole entry): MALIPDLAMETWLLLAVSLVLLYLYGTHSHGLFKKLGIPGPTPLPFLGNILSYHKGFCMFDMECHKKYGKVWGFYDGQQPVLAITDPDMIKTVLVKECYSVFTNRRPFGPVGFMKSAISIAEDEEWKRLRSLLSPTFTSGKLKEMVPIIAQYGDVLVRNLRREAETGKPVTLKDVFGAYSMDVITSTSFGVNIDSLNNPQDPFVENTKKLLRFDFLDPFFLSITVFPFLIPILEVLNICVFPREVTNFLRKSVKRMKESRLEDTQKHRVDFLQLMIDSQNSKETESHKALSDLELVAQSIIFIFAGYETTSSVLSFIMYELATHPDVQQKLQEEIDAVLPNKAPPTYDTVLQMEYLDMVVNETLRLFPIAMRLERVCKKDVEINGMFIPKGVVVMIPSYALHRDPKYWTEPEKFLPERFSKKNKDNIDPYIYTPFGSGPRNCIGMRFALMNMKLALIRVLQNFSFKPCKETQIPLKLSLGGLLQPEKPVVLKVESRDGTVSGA

For orientation, consider the following solved cases.
>  <compound>
CC[C@H]1OC(=O)[C@H](C)[C@@H](O[C@H]2C[C@@](C)(OC)[C@@H](O)[C@H](C)O2)[C@H](C)[C@@H](O[C@@H]2O[C@H](C)C[C@H]3[C@H]2O/C(=N/c2ccc(OC)cc2)N3C)[C@](C)(OC)C[C@@H](C)C(=O)N[C@H](C)[C@@H](O)[C@]1(C)O

>  <experimental_system>
Cytochrome P450 3A4 (Homo sapiens, UniProt P08684)

>  <IC50>
4.7 µM

$$$$
>  <compound>
CC/N=C1\O[C@H]2[C@H](O[C@@H]3[C@@H](C)[C@H](O[C@H]4C[C@@](C)(OC)[C@@H](O)[C@H](C)O4)[C@@H](C)C(=O)O[C@H](CC)[C@@](C)(O)[C@H](O)[C@@H](C)N(C)C[C@H](C)C[C@@]3(C)O)O[C@H](C)C[C@@H]2N1C

>  <experimental_system>
Cytochrome P450 3A4 (Homo sapiens, UniProt P08684)

>  <IC50>
> 10 µM

$$$$
>  <compound>
CC[C@H]1OC(=O)[C@H](C)[C@@H](O[C@H]2C[C@@](C)(OC)[C@@H](O)[C@H](C)O2)[C@H](C)[C@@H](O[C@@H]2O[C@H](C)C[C@H]3[C@H]2O/C(=N\C(C)C)N3C)[C@](C)(OC)C[C@@H](C)NC(=O)[C@H](C)[C@@H](O)[C@]1(C)O

>  <experimental_system>
Cytochrome P450 3A4 (Homo sapiens, UniProt P08684)

>  <IC50>
> 10 µM

$$$$

Query string: Report measured IC50 on Cytochrome P450 3A4 (Homo sapiens, UniProt P08684); entry: CC/N=C1\O[C@H]2[C@H](O[C@@H]3[C@@H](C)[C@H](O[C@H]4C[C@@](C)(OC)[C@@H](O)[C@H](C)O4)[C@@H](C)C(=O)O[C@H](CC)[C@@](C)(O)[C@H](O)[C@@H](C)C(=O)[C@H](C)C[C@@]3(C)OC)O[C@H](C)C[C@@H]2N1C
Result string: 2.9 µM

Query string: Report measured IC50 on Cytochrome P450 3A4 (Homo sapiens, UniProt P08684); entry: CC[C@H]1OC(=O)[C@H](C)[C@@H](O[C@H]2C[C@@](C)(OC)[C@@H](O)[C@H](C)O2)[C@H](C)[C@@H](O[C@@H]2O[C@H](C)C[C@H]3[C@H]2O/C(=N\CCCSC)N3C)[C@](C)(OC)C[C@@H](C)C(=O)N[C@H](C)[C@@H](O)[C@]1(C)O
Result string: > 10 µM

Query string: Report measured IC50 on Cytochrome P450 3A4 (Homo sapiens, UniProt P08684); entry: CC[C@H]1OC(=O)[C@H](C)[C@@H](O[C@H]2C[C@@](C)(OC)[C@@H](O)[C@H](C)O2)[C@H](C)[C@@H](O[C@@H]2O[C@H](C)C[C@H]3[C@H]2O/C(=N\C(C)C)N3C)[C@](C)(O)C[C@@H](C)CN(C)[C@H](C)[C@@H](O)[C@]1(C)O
Result string: > 10 µM

* * *

experiment: Antiinflammatory activity in mouse splenocytes assessed as inhibition of LPS-induced IL-6 production at 50 uM preincubated for 2 hrs prior to LPS challenge by sandwich ELISA; format: functional; conditions: Splenocyte
Here, each record is paired with measured inhibition at 50 µM data.
Give the value, in units of %, as a plain number.

Query string: For the compound CC[C@H]1OC(=O)[C@H](C)[C@@H](O[C@H]2C[C@@](C)(OC)[C@@H](O)[C@H](C)O2)[C@H](C)[C@@H](O[C@@H]2O[C@H](C)C[C@H]3[C@H]2O/C(=N/c2ccc(OC)cc2)N3C)[C@](C)(OC)C[C@@H](C)C(=O)N[C@H](C)[C@@H](O)[C@]1(C)O , give its measured inhibition at 50 µM value.
Result string: 71

Query string: For the compound CC[C@H]1OC(=O)[C@H](C)[C@@H](O[C@H]2C[C@@](C)(OC)[C@@H](O)[C@H](C)O2)[C@H](C)[C@@H](O[C@@H]2O[C@H](C)C[C@H]3[C@H]2O/C(=N\C(C)C)N3C)[C@](C)(O)C[C@@H](C)CN(C)[C@H](C)[C@@H](O)[C@]1(C)O , give its measured inhibition at 50 µM value.
Result string: 95
